Consider the following molecules and their measured inhibition readings.
# Method summary: inhibitors of TNFa-induced NFkB p65 translocation, primary screen, imaging, HUVEC, MLSMR starter and 10KST1 sets (AID 438);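 further: compound added about 3h40 before a 20 min TNFalpha stimulation; signal is the nuclear over cytoplasmic p65 intensity ratio per well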
# Measurement conditions: HUVEC TNFa-induced p65 nuclear translocation; at 2 µM, stronger effect = higher value, 0% TNFa-plus-vehicle, 100% no-TNFa wells
Attribute measured: inhibition (%)

CN(C1CCS(=O)(=O)C1)S(=O)(=O)c1cccc2nsnc12 (stereo unspecified)    -15.3
CN(C)c1ccc(C=NCC2(O)CCOC(C)(C)C2)cc1 (stereo unspecified)    -13.2
N#CCCn1cnc2c(=S)nc[nH]c21    -12.9
Cc1ccc(S(=O)(=O)/C(C#N)=C/c2c(N3CCN(C)CC3)nc3c(C)cccn3c2=O)cc1    3.3
CCOc1ccc(-c2nn3c(-c4ccc(OC)cc4)nnc3s2)cc1    -14.6
COc1ccc(/C=N/n2cncn2)cc1CSc1ccccn1    -17.2
CC(C)Sc1nc(N2CCCC2)c2c(c1C#N)CC(C)(C)OC2    -6.2
C[C@]12CC[C@@H]3c4ccc(OC(=O)c5ccccc5)cc4CC[C@H]3[C@@H]1CC[C@@H]2O    1.2
CCOc1ccc(C2/C(=C(/O)c3ccc(OC)cc3)C(=O)C(=O)N2c2cc(C)on2)cc1OC (stereo unspecified)    -5.2
COc1cccc(C2C(C(=O)c3cc4ccccc4o3)=C(O)C(=O)N2CCN(C)C)c1OC (stereo unspecified)    -3.4
COc1cccc(-c2nnc3sc(-c4cccs4)nn23)c1    -9.3
[N-]=[N+]=CC(=O)c1ccnc(C(=O)C=[N+]=[N-])c1    -10.2
CCCCCc1ccc(-c2ccc(=O)[nH]n2)cc1    -1.5
COc1ccccc1N1CCN(CCOc2c(OC)cccc2OC)CC1    -10.5
CCOC(=O)c1ccc(-n2c(=O)[nH]c3ccccc3c2=O)cc1    -3.4
Clc1ccccc1-c1nnc2sc(-c3ccco3)nn12    -10.6
CC1(C)Cc2c(C#N)c(SCCC#N)nc(N3CCOCC3)c2CS1    -13
Cc1ccc2[nH]c(CCN(C)C)c(CC#N)c2c1    4.9
CCCC1Cc2c(sc3ncnc(N)c23)CO1 (stereo unspecified)    -5.3
c1cncc(-c2nnc3sc(-c4ccco4)nn23)c1    0.4
O=C1NC2c3ccccc3C(=O)N2c2c1cnn2-c1ccccc1 (stereo unspecified)    -7.1
ClC(Br)=C(n1cnc2ccccc21)n1cnc2ccccc21    -11
CCc1cc2c(=O)c(-c3cscn3)coc2cc1O    -6.1
O=C(O)c1cccnc1Nc1cccc(C(F)(F)F)c1    -0.7
Cc1cc(C)n(CC(=O)N2c3ccccc3Sc3ccccc32)n1    -0.4
O=C1c2ccccc2C(=O)N1CCN1CCc2ccccc21    -3.1
